tested on: human colorectal cancer cell SW480; test: MTT proliferation inhibition, SW480; type: cell-based; conditions: Homo sapiens, SW480, 72 h
measuredProperty: pIC50
Kindly note that pIC50 refers to -log10 of the concentration in mol/L and answer with the value alone.

-- ask # lookup: pIC50 of C=CCc1cccc(/C=N/NC(=O)CN2CCCN(Cc3ccccc3)CC2)c1O [Form D, orbit azine difumarate]
-- reply 5.78

----------
test system: human neuroglioma cell BT-325; assay: MTT proliferation inhibition, BT-325; format: cell-based; settings: BT-325, MTT, 72 h; listed as an amorphous form
measuredProperty: IC50 (nM)
Enter your answer as a number in nM; do not include the unit.

-- ask Which measured IC50 value corresponds to C=CCc1cccc(/C=N/NC(=O)CN2CCCN(Cc3ccccc3)CC2)c1O [Amorphous form, orbit azine monofumarate] ?
-- reply 2520

----------
system: human gastric adenocarcinoma cell MGC-803; assay: MTT proliferation inhibition, MGC-803; assay type: cell-based; conditions: MGC-803, MTT, 72 h; monofumarate monohydrate
measuredProperty: pIC50
API: returns pIC50 as number; meaning -log10 of concentration in mol/L.

-- ask Entry C=CCc1cccc(/C=N/NC(=O)CN2CCCN(Cc3ccccc3)CC2)c1O [Form B, orbit azine monofumarate monohydrate] has what pIC50?
-- reply 5.86

----------
assay: Stability of crystal forms in sodium phosphate/hydrochloric acid buffer pH=6.8 (37° C.); assay type: physicochemical; conditions: pH = 6.8 buffer, 37° C., 24 h
measuredProperty: Purity (%)
Just the number please, in %, no unit attached.

-- ask Purity for C=CCc1cccc(/C=N/NC(=O)CN2CCCN(Cc3ccccc3)CC2)c1O [Form D, orbit azine difumarate] ?
-- reply 84.552

-- ask Try this compound too: C=CCc1cccc(/C=N/NC(=O)CN2CCCN(Cc3ccccc3)CC2)c1O [Form C, orbit azine difumarate]
-- reply 82.680

-- ask Next compound: C=CCc1cccc(/C=N/NC(=O)CN2CCCN(Cc3ccccc3)CC2)c1O [Amorphous form, orbit azine monofumarate]
-- reply 85.026

-- ask Check C=CCc1cccc(/C=N/NC(=O)CN2CCCN(Cc3ccccc3)CC2)c1O [Form A, orbit azine monofumarate] too.
-- reply 84.864

----------
system: human medulloblastoma D341 Med; test: MTT proliferation inhibition, D341 Med; format: cell-based; conditions: 72 h, monofumarate monohydrate
measuredProperty: IC50 (nM)
Numeric answer only, unit nM assumed.

-- ask GET /values?readout=IC50&item= C=CCc1cccc(/C=N/NC(=O)CN2CCCN(Cc3ccccc3)CC2)c1O [Form B, orbit azine monofumarate monohydrate]
-- reply 430

----------
Record form. Attribute: Purity. Fill in for each entry.
experiment: Stability of crystal forms in sodium phosphate/hydrochloric acid buffer pH=6.8 (37° C.); assay type: physicochemical; conditions: pH = 6.8 buffer, 37° C., 0 h (baseline)
Quick note: give the figure in %, leave out the unit.

-- ask Recorded Purity for C=CCc1cccc(/C=N/NC(=O)CN2CCCN(Cc3ccccc3)CC2)c1O [Form A, orbit azine monofumarate] , please?
-- reply 98.069

-- ask For C=CCc1cccc(/C=N/NC(=O)CN2CCCN(Cc3ccccc3)CC2)c1O [Form D, orbit azine difumarate] then?
-- reply 97.999

-- ask Same question, C=CCc1cccc(/C=N/NC(=O)CN2CCCN(Cc3ccccc3)CC2)c1O [Amorphous form, orbit azine monofumarate] this time
-- reply 97.980

-- ask // repeat for C=CCc1cccc(/C=N/NC(=O)CN2CCCN(Cc3ccccc3)CC2)c1O [Form C, orbit azine difumarate] and report
-- reply 94.584
